biological target: MERTK (UniProt Q12866); assay: phosphorylation enrichment, bacterial display (enrichment ratio); higher = better substrate or ligand; peptides without Tyr show the background
Sequence (Q12866 whole entry, looked up): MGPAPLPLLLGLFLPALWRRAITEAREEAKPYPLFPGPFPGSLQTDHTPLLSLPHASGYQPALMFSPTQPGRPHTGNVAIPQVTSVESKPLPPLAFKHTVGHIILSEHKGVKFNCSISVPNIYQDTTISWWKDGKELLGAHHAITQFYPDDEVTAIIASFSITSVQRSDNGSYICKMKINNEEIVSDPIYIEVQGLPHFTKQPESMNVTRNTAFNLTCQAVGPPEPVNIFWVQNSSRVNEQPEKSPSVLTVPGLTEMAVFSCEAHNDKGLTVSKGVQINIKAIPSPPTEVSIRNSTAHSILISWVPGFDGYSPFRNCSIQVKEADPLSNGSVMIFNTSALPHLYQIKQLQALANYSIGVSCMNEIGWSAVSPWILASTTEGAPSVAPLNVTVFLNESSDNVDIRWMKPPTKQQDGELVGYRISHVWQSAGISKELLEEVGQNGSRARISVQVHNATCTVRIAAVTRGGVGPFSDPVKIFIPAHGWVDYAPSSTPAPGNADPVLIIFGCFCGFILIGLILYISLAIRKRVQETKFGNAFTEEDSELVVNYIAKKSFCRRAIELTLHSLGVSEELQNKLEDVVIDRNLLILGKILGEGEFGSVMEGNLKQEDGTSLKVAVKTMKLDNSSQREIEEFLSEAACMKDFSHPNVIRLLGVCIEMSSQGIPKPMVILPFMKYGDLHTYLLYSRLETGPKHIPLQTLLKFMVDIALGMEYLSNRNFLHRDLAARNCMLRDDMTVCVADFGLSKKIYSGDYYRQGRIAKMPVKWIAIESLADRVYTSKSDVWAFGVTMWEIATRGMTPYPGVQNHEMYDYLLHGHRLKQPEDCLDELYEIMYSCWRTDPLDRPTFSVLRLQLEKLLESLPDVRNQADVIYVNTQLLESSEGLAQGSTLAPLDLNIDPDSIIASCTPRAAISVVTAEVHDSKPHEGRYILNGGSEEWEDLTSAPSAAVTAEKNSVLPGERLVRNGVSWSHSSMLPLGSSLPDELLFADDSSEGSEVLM
Label Y when phosphorylation enrichment is at or above 0.5; anything below gets N.

Known results for sequences:
LANNEYYFQVC	Y
SLESAYPEGSQ [TTF1_Y357]	N
SVGGLYRDMGA [CBX8_Y321_G317V]	N
KRPAVYIDEEA [EPM2A_Y304]	Y
SYCYRYRCAPR [SUMF1_Y344_A348P]	N

Item SEDANYMRVSC [TTC3_Y1288_K1289M] with phosphorylation enrichment of 0.5 or above? N

Item PSAVAYPKRSQ [MARK3_Y432_V429A] with phosphorylation enrichment of 0.5 or above? Y

Item HLLRIYFDITD [MMP27_Y307_W304L_YF] with phosphorylation enrichment of 0.5 or above? Y

Item STSFDYCRVPM [BST2_Y8_YF] with phosphorylation enrichment of 0.5 or above? Y

Item RLLRGYRQDAY [HLA-A_Y137_F133L] with phosphorylation enrichment of 0.5 or above? Y

###

Catalogue of SH2 binding enrichment values
target: SHP2-C SH2; experiment: SH2 binding enrichment of the phosphorylated peptide, bacterial display (enrichment ratio); higher = better substrate or ligand; peptides without Tyr show the background;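 also: peptide library displayed on the E. coli surface as eCPX fusions, selected cells deep-sequenced, score is each peptide's frequency after selection divided by its frequency in the input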
Lab note: record the figure alone, no unit after it.

QRCYVYYYSYL [PTEN_Y176_R173C]	0.542

Name the recorded SH2 binding enrichment for DLDPNYVLSSR [CKM_Y125] . 0.75

Name the recorded SH2 binding enrichment for KLQQWYREPRS [GPI_Y17_H20P] . 0.799

Name the recorded SH2 binding enrichment for FSGIFYKPESL [L2HGDH_Y103_H98Y_YF] . 1.27

Name the recorded SH2 binding enrichment for PEYVVYKPQME [CCRL2_Y170_F167Y] . 1.05

Name the recorded SH2 binding enrichment for LFQAKYQIRFR [CRLF1_Y272_YF] . 1.32

Name the recorded SH2 binding enrichment for PDSVDYPKKGY [CTSK_Y121_R122P] . 0.724

Name the recorded SH2 binding enrichment for LWEGSYGKVKE [STK11_Y60_G56W] . 1.21

Name the recorded SH2 binding enrichment for ILTYKYLQKPM [KIT_Y547] . 0.362

Name the recorded SH2 binding enrichment for SVVVPYEPPED [TP53_Y220_V225D] . 0.778

Name the recorded SH2 binding enrichment for QAPPIYLDVLG [NTRK1_Y791_V790I] . 0.734

Name the recorded SH2 binding enrichment for LEDEVYAQKMK [TPM2_Y261] . 0.836

Name the recorded SH2 binding enrichment for RRSQSYNPTSG [PLEKHA2_Y185_I186N] . 0.461

Name the recorded SH2 binding enrichment for PKSWNYELPAT [PROM1_Y34_A31S] . 1.02

###

Catalogue of phosphorylation enrichment values
target: FGFR1 (UniProt P11362); test: phosphorylation enrichment, bacterial display (enrichment ratio); higher = better substrate or ligand; peptides without Tyr show the background
Sequence (P11362 whole entry, looked up): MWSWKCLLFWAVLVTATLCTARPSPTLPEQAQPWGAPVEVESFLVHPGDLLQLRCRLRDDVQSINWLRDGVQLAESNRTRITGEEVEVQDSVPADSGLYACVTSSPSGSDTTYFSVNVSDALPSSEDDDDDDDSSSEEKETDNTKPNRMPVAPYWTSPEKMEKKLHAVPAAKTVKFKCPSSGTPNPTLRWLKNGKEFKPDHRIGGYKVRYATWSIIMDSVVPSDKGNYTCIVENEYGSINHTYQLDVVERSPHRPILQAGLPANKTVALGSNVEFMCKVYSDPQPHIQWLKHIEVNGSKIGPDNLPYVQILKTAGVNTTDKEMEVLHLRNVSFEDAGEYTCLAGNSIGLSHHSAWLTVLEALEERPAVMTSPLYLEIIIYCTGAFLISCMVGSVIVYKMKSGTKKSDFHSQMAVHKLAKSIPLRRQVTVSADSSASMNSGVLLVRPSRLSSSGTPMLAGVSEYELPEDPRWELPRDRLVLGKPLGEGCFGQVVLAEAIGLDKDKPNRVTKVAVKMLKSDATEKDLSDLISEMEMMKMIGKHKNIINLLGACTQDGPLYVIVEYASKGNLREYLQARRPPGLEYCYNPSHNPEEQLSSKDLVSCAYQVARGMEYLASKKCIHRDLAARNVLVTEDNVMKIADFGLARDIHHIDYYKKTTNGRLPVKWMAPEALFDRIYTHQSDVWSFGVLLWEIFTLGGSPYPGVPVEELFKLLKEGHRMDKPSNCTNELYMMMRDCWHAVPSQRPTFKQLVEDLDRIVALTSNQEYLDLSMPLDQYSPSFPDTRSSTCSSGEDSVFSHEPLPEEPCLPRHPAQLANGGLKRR
Lab note: record the figure alone, no unit after it.

Some sequences with known phosphorylation enrichment results, for comparison:
VDSLRYIFPKL [EIF2B3_Y92_A87V_YF]	0.486
LFQAKYQIRFR [CRLF1_Y272_YF]	1.03
VKANTYENYWP [GATM_Y100_K102N]	1.17
RAADFYSQQMA [GBP6_Y334_YF]	0.537
HRNNNYEPNLF [BRCA2_Y57_K53R]	0.54

Name the recorded phosphorylation enrichment for ANNQRYAFMPL [TMEM87B_Y460] . 0.535

Name the recorded phosphorylation enrichment for NGQAVYAACQT [XDH_Y1092] . 0.506

Entry source: the supplement of paper PMC10065799
